Data provenance: the supplement of paper PMC13380429

system: Caco-2; assay: relative viability EC50 (midpoint between 100% and the lowest measured viability); higher = less toxic; conditions: 72 h
Please respond with reported relative viability EC50 for every item in the list.

Some compounds with known relative viability EC50 results, for comparison:
Compound	Measured Value
CN1C(=O)c2c(nn(Cc3ccc(-c4cccc(F)n4)cc3)c2Nc2ccccc2)N2C1=N[C@@H]1CCC[C@@H]12	> 10 µM
FC(F)(F)c1ccccc1-n1ccnc1	> 10 µM
O=C(O)c1cccnc1Nc1cccc(C(F)(F)F)c1	> 10 µM
O=C(N/N=C/c1ccc(O)c(O)c1)c1cc2ccccc2cc1O	> 10 µM
CN(CCOc1ccc(NS(C)(=O)=O)cc1)CCc1ccc(NS(C)(=O)=O)cc1 [dofetilide]	> 10 µM

Below are 2 compounds. Give each one its relative viability EC50.
1. O=C(O)Cn1c2c(c3cc(F)ccc31)CN(C(=O)c1cccc3ccccc13)CC2
2. CC(=O)OCC(=O)[C@@]1(O)CC[C@H]2[C@@H]3CCC4=CC(=O)C=C[C@]4(C)[C@H]3[C@@H](O)C[C@@]21C [prednisolone-acetate]

Result ::
["> 10 µM", "> 10 µM"]

Below are 4 compounds. Give each one its relative viability EC50.
1. O=C1NC(=O)C(c2cnc3ccccn23)=C1c1cn2c3c(cc(F)cc13)CN(C(=O)N1CCCCC1)CC2
2. CN1[C@@H]2CC[C@H]1C[C@@H](OC(=O)c1cc(Cl)cc(Cl)c1)C2
3. C=CC(=O)Nc1cccc(Nc2nc(Nc3ccc(OCCOC)cc3)ncc2F)c1
4. [Cl][Ti][Cl].c1cc[cH-]c1.c1cc[cH-]c1 [titanocene-dichloride]

Result ::
1: 0.624 µM; 2: > 10 µM; 3: 1.47 µM; 4: > 10 µM
